tested on: α7 integrin promoter; assay: muscle cell-based assay: α7βgal+/− myoblasts/myotubes, LacZ reporter, β-galactosidase cleavage of FDG; parameters: species or system mouse; conditions: Myoblasts, 0.5 uM
measured attribute: Result in α7+/− β-galactosidase assay
Reply: number alone, nothing else.

CC(=O)Oc1c(Cl)cc(/C=C2\C(=O)Nc3ccccc32)cc1Cl [drawing 714] : 0.1697
CCN(CC)CCNC(=O)c1c(C)[nH]c(CC2C(=O)Nc3ccc(F)cc32)c1C (stereo not shown) [drawing 715] : −0.1627
O=C1Nc2ccccc2/C1=C1/Nc2ccccc2/C1=N\O [drawing 722] : 0.1752

Turning now to a further compound:
Field Result in α7+/− β-galactosidase assay (entry Cc1[nH]c(/C=C2\C(=O)Nc3ccc([S+](=O)([O-])Cc4c(Cl)cccc4Cl)cc32)c(C)c1C(=O)C1CCCN1CN1CCCC1 (stereo not shown) [drawing 725] ) reads 0.05199

* * *

test system: α7 integrin promoter; assay: muscle cell-based assay: α7βgal+/− myoblasts/myotubes, LacZ reporter, β-galactosidase cleavage of FDG; parameters: species or system mouse; settings: curve class number, key not given
# maps each entry to its Fit Curve Class
Reply: number alone, nothing else.

Answered cases to consult:
CCc1ccc(Sc2cc(C(=O)NCCN3CCOCC3)c3ccccc3n2)cc1 : 2.1
COCc1c(C(=O)N/N=C(\C)c2ccc(OCc3ccccc3)cc2)nnn1-c1nonc1N : 2.1
Cc1c(C(=O)N2CCCCC2)c(S(=O)(=O)Nc2cccc(Br)c2)c(C)n1C : 2.1
CCOc1ccc(NC(=O)CN2C(=O)NC(CCSC)C2=O)cc1 (stereo not drawn) : 2.2
O=C(N/N=C/c1cn[nH]c1-c1ccc(F)cc1)c1ccncc1 : 2.1

Field Fit Curve Class (entry `Cc1ccc(-c2csc(Nc3ccc(C(=O)O)cc3)[n+]2Cc2ccccc2)cc1.[Br-]` ) reads 2.1

Field Fit Curve Class (entry `CSc1ncccc1C(=O)OCC(=O)c1cc(C)n(C)c1C` ) reads 2.1

Field Fit Curve Class (entry `CC(=O)Nc1ccc(NC(=O)c2cc(=O)c3cc(C)cc(C)c3o2)cc1` ) reads 2.1

Field Fit Curve Class (entry `O=S(=O)(N/C(=N/C1CCCCC1)c1ccccc1F)c1ccccc1` ) reads 2.2

Field Fit Curve Class (entry `O=C(CSc1nnc(C2CC2)n1C1CC1)c1cccs1` ) reads 2.1

Field Fit Curve Class (entry COc1cccc(N2C(=O)CC(N3CCc4ccccc4C3)C2=O)c1 (stereo not drawn) ) reads 2.1

Field Fit Curve Class (entry `O=C(Nc1ccc(N2CCN(C(=O)c3ccccc3F)CC2)cc1)c1cncc(Br)c1` ) reads 2.1

Field Fit Curve Class (entry O=S(=O)(c1ccccc1)N1CCCC(c2nc(O)c3nnn(Cc4cccc(Cl)c4)c3n2)C1 (stereo not drawn) ) reads 2.1

Field Fit Curve Class (entry `C=CCc1c(C)nc(-c2ccccc2)nc1N/N=C/c1ccccc1` ) reads 2.1

Field Fit Curve Class (entry `O=C(O)CCCNC(=O)CCn1nnc2ccccc2c1=O` ) reads 2.1

Field Fit Curve Class (entry `O=C1CCc2cc(S(=O)(=O)Nc3ccc(C(F)(F)F)cc3)cc3c2N1CC3` ) reads 2.1

Field Fit Curve Class (entry `CC(=O)c1cccc(NC(=O)C(=O)Nc2cccc3ccccc23)c1` ) reads 2.2

Field Fit Curve Class (entry `Cn1c(=O)c2c(nc(Sc3ncnn3CC(=O)NC3CCCCC3)n2C)n(C)c1=O` ) reads 2.1
